# Assay Explanation: Pharmacokinetic parameter in Male Wistar rats at 10 mg/kg oral administration.
# Assay type: ADME, organism-based
# Parameters: dose 10 mg/kg, route oral
# Study Conditions: rat, in vivo
Readout Kind: bioavailability (%)

1. CCO[C@@H](Cc1ccc(OCCN2c3ccccc3Oc3ccccc32)cc1)C(=O)O    77

Data credit: ChEMBL document CHEMBL1134556
